- assay procedure: ATG_M_32_CIS: Attagene CIS-FACTORIAL HepG2 Assay for M32 Transcription Factor (Internal Marker) (AID 2282949);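 note: background control marker of the multiplexed CIS panel rather than a real target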
- experimental setup: HepG2 Attagene cis-factorial M32 reporter, mRNA; actives raise or lower the signal
- Protocol: ATG_CIS is a cell-based, multiplexed-readout assay that uses HepG2, a human liver cell line, with measurements taken at 24 hours after chemical dosing in a 24-well plate.ATG_M_32_CIS is one of 52 assay component(s) measured or calculated from the ATG_CIS assay. […] This assay endpoint, ATG_M_32_CIS, was analyzed with bidirectional fitting relative to DMSO as the negative control and baseline of activity. […]
Calls of active or inactive are those of the source. Rule for the calls: active = hit-call score of the fitted dose curve at least 0.9, where 1 is the maximum; inactive = score below 0.9.
measured property: outcome

Worked cases, outcome given:
Cc1ccc(O)c(-n2nc3ccccc3n2)c1 ... inactive
CCOC(C=C(C)CCC=C(C)C)OCC ... inactive
OCCC(O)CO (stereo not given) ... inactive
Brc1nc2ccccc2s1 ... inactive
Nc1cccnc1N ... inactive
CC1=CCC(=O)O1 ... inactive
O=c1[nH]cccc1O ... inactive
CCCC(=O)OCC(COC(=O)CCC)OC(=O)CCC ... inactive

Look up and state reported outcome for COC(=O)c1ccc(C=O)cc1
inactive

Look up and state reported outcome for O=S(=O)(OCC(F)(F)F)C(F)(F)C(F)(F)C(F)(F)C(F)(F)F
inactive

Look up and state reported outcome for C[C@]12CC[C@H]3C(=CCc4cc(O)ccc43)[C@@H]1CCC2=O
inactive

Look up and state reported outcome for O=C(Cl)C(F)(F)C(F)(F)C(F)(F)C(F)(F)C(F)(F)C(F)(F)C(F)(F)F
inactive

====

- Read-out: Transforming growth factor beta 1 (TGFb1), TGFB1 (gene 7040)
- assay procedure: BSK_KF3CT_TGFb1: BioMAP Diversity Plus: KF3CT Assay for Transforming growth factor beta 1 (TGFb1) Biomarker Activity (AID 2283072)
- experimental setup: primary human keratinocytes with fibroblasts; actives raise or lower the signal
Calls of active or inactive are those of the source. Rule for the calls: active = hit-call score of the fitted dose curve at least 0.9, where 1 is the maximum; inactive = score below 0.9.
Return exactly one item of active, inactive

Each compound tested received a call. Report the one for CCN(CC)c1ccc(N=Nc2ccccc2)cc1 .
inactive

Each compound tested received a call. Report the one for O=C=Nc1cccc2c(N=C=O)cccc12 .
inactive

Each compound tested received a call. Report the one for CCOC(C=C(C)CCC=C(C)C)OCC .
active

Each compound tested received a call. Report the one for CC1=CC2C3C=CC(C3)C2C1C (stereo not drawn) .
inactive

Each compound tested received a call. Report the one for CCN(CC)c1ccc(C=O)c(O)c1 .
inactive

Each compound tested received a call. Report the one for Cc1cnccn1 .
inactive

Each compound tested received a call. Report the one for Cc1ccc(S(=O)(=O)C(I)I)cc1 .
inactive

Each compound tested received a call. Report the one for Cc1ccc(O)c(-n2nc3ccccc3n2)c1 .
inactive

====

- assay procedure: CCTE_Padilla_ZF_Score.General: CCTE's 144 Hour Post-fertilization zebrafish Assay Score for General Malformation, Padilla Lab (AID 2284411)
- Protocol: CCTE_Padilla_ZF_Phenotype_Score is a whole embryo, multiplexed assay using zebrafish ova exposed for 144 hours post fertilization on a 96-well plate.CCTE_Padilla_ZF_Score.General is one of one assay component(s) measured or calculated from the CCTE_Padilla_ZF_Phenotype_Score assay. […] This assay endpoint, CCTE_Padilla_ZF_Score.General, was analyzed in the positive analysis fitting direction relative to DMSO as the negative control and baseline of activity. […]
Active and inactive are the calls of the source. The calls were made as follows: active = hit-call score of the fitted dose curve at least 0.9, where 1 is the maximum; inactive = score below 0.9.
Return exactly one item of active, inactive

Each compound tested received a call. Report the one for O=S(=O)(O)CCC(F)(F)C(F)(F)C(F)(F)C(F)(F)F .
inactive

Each compound tested received a call. Report the one for COC(F)(C(F)F)C(F)(F)F (configuration not stated) .
inactive

Each compound tested received a call. Report the one for C=C(C)C(=O)OCC(F)(F)C(F)(F)C(F)(F)C(F)F .
inactive

Each compound tested received a call. Report the one for C=CC(=O)OCCC(F)(F)C(F)(F)C(F)(F)C(F)(F)F .
active

Each compound tested received a call. Report the one for C=CC(=O)OCC(F)(F)C(F)(F)C(F)(F)C(F)(F)C(F)(F)C(F)(F)C(F)(F)C(F)F .
inactive

Each compound tested received a call. Report the one for OCC(O)CC(F)(F)C(F)(F)C(F)(F)C(F)(F)F (configuration not stated) .
inactive

Each compound tested received a call. Report the one for O=C(O)CCC(F)(F)C(F)(F)C(F)(F)F .
inactive

Each compound tested received a call. Report the one for CN1CN(C)CN(C)C1 .
inactive

Each compound tested received a call. Report the one for NC(=O)C(F)(F)C(F)(F)C(F)(F)C(F)F .
inactive

Each compound tested received a call. Report the one for CC(C)CCCC(C)CCO (configuration not stated) .
inactive

Each compound tested received a call. Report the one for CN(C(=O)C(F)(F)C(F)(F)C(F)(F)F)[Si](C)(C)C .
inactive

Each compound tested received a call. Report the one for O=C(O)C(F)(F)C(F)(F)C(F)(F)OC(F)(C(F)(F)F)C(F)(F)F .
inactive
